test system: HEK293 clonal cell line overexpressing APOL1 G1; assay: APOL1 G1 HEK293 cell rescue assay (Example B3); type: cell-based; conditions: Homo sapiens, HEK293, HEK293 clonal line overexpressing APOL1 G1; geometric mean of at least 2 runs; † = single run; ¥ = concentration at 50% rescue estimated (no sigmoidal curve)
ASSAY_METRIC: EC50 (nM)
One number for each entry, in nM.

The following compounds have reported results that may help.
{"COMPOUND": "Cc1cc(OCCN2CCC3(CC2)C(=O)Nc2ccc(Cl)cc23)ccc1C(N)=O [Compound 49]", "EC50, nM": 260}
{"COMPOUND": "[2H]C([2H])([2H])N1C(=O)C2(CCN(CCOc3ccc(S(C)(=O)=NC)c(C(F)(F)F)c3)CC2)c2cc(Cl)ccc21 (stereo not drawn) [Compound 413]", "EC50, nM": 208}

For each entry beneath this line, provide reported EC50.
1. CS(=O)(=O)c1c(F)cc(OCCN2CCC3(CC2)C(=O)Nc2ccccc23)cc1F [Compound 42]
2. O=C1Nc2ccc(Cl)cc2C12CCN(CCOc1ccc3c(c1)CCNS3(=O)=O)CC2 [Compound 167]

Response:
1. 1080
2. 138

====

tested on: HEK293 clonal cell line overexpressing APOL1 G1; experiment: APOL1 G1 HEK293 cell rescue assay (Example B3); type: cell-based; details: Homo sapiens, HEK293, HEK293 clonal line overexpressing APOL1 G1; geometric mean of at least 2 runs; † = single run; ¥ = concentration at 50% rescue estimated (no sigmoidal curve)
Grouping key: EC50. Bins: lowest: < 0.09 µM; middle: ≥ 0.09 µM and < 0.2 µM; highest: ≥ 0.2 µM

Take a look at these entries with their results.
{"COMPOUND": "CP(C)(=O)C1(c2ccc(OCCN3CCC4(CC3)C(=O)Nc3ccc(Cl)cc34)cc2)CC1 [Compound 343]", "ANSWER_LABEL": "highest"}
{"COMPOUND": "N#Cc1ccc2c(c1)C1(CCN(CCOc3ccc(C4CCCS4(=O)=O)cc3)CC1)C(=O)N2 (centres unmarked) [Compound 178]", "ANSWER_LABEL": "highest"}
{"COMPOUND": "C[C@]1(O)C[C@@H](n2nnc3cc(OCCN4CCC5(CC4)C(=O)Nc4ccc(C#N)cc45)cc(C(F)(F)F)c32)C1 [Compound 435]", "ANSWER_LABEL": "lowest"}
{"COMPOUND": "CC(C)(CO)c1ncc(OCCN2CCC3(CC2)C(=O)Nc2ccc(C#N)cc23)cn1 [Compound 432]", "ANSWER_LABEL": "highest"}
{"COMPOUND": "CC(O)c1ncc(OCCN2CCC3(CC2)C(=O)Nc2ccc(Cl)cc23)cc1C(F)(F)F (centres unmarked) [Compound 399]", "ANSWER_LABEL": "middle"}
{"COMPOUND": "CS(=O)(=O)c1ccc(OCCN2CCC3(CC2)C(=O)Nc2c(Cl)cc(Cl)cc23)cc1 [Compound 7]", "ANSWER_LABEL": "highest"}

Prompt: Please let me know in which category the item NC(=O)c1ccc(OCCN2CCC3(CC2)C(=O)Nc2ccc(Cl)cc23)cc1 [Compound 45] belongs.
Response: highest

Prompt: Just checking, what class would you give COCCN1C(=O)C2(CCN(CCOc3ccc(S(C)(=O)=O)cc3)CC2)c2cc(Cl)ccc21 [Compound 20] here?
Response: highest

Prompt: Into which bin does this compound go? CC(C)(CO)c1ncc(OCCN2CCC3(CC2)C(=O)Nc2ccc(Cl)cc23)cn1 [Compound 334]
Response: highest

Prompt: Quick check: band for C[C@]1(O)C[C@@H](N2C(=O)CCc3cc(OCCN4CCC5(CC4)C(=O)Nc4ccc(Cl)cc45)cc(C(F)(F)F)c32)C1 [Compound 353]
Response: lowest

Prompt: # bin lookup: classify O=C1Nc2ccc(Cl)cc2C12CCN(CCOc1ccc(S(=O)(=O)C3(CO)CC3)cc1)CC2 [Compound 225] by its EC50
Response: lowest

Prompt: Kindly identify the class of CNC(=O)N1CCc2cc(OCCN3CCC4(CC3)C(=O)Nc3ccc(Cl)cc34)ccc2C1 [Compound 245] .
Response: highest

Prompt: Sort CS(=O)(=O)C1(c2c(F)cc(OCCN3CCC4(CC3)C(=O)Nc3ccc(C#N)cc34)cc2F)COC1 [Compound 84] into one of the categories.
Response: highest

Prompt: For this compound, which bin applies? C[C@]1(O)C[C@@H](n2cnc3cc(OCCN4CCC5(CC4)C(=O)Nc4ccc(C#N)cc45)cc(C(F)F)c32)C1 [Compound 446]
Response: lowest

Prompt: Sort into band: O=C1Nc2ccc(Cl)cc2C12CCN(CCOc1cnc3c(N4CC(O)C4)ncnc3c1)CC2 [Compound 366]
Response: middle

Prompt: Field: class (EC50) — entry: CC1(O)CC(n2ncc3cc(OCCN4CCC5(CC4)C(=O)Nc4ccc(Cl)cc45)cnc32)C1 (centres unmarked) [Compound 407]
Response: lowest

Prompt: Which EC50 band matches O=C1CCc2cc(OCCN3CCC4(CC3)C(=O)Nc3ccc(Cl)cc34)ccc2N1[C@H]1C[C@@H](O)C1 [Compound 114] ?
Response: middle

Prompt: Bin? [2H]C([2H])([2H])N1C(=O)C2(CCN(CCOc3ccc(C4CCN(S(C)(=O)=O)CC4)cc3)CC2)c2cc(Cl)ccc21 [Compound 412]
Response: lowest

Prompt: Dear colleague, I would appreciate it if you could identify the bin for O=C(c1ccc(OCCN2CCC3(CC2)C(=O)Nc2ccc(Cl)cc23)cc1F)N1CCOCC1 [Compound 231] and reply at your convenience.
Response: middle

Prompt: Where would CC(c1ncc(OCCN2CCC3(CC2)C(=O)Nc2ccc(Cl)cc23)cn1)S(C)(=O)=O (centres unmarked) [Compound 1] land among the classes by reported EC50?
Response: highest

Prompt: Kindly state the category for this compound: CN1C(=O)C2(CCN(CCOc3cc(F)c(C(=O)N4CCS(=O)(=O)CC4)c(F)c3)CC2)c2cc(C#N)ccc21 [Compound 260]
Response: highest

Prompt: Category of O=C1NCC2c3ccc(OCCN4CCC5(CC4)C(=O)Nc4ccc(Cl)cc45)cc3CCN12 (single isomer, unassigned) [Compound 116] :
Response: highest

Prompt: Just checking, what class would you give CS(=O)(=O)c1ccc(OCCN2CCC3(CC2)C(=O)Nc2ccc(C#N)cc23)cc1Cl [Compound 156] here?
Response: middle

Prompt: Where would C[C@]1(O)C[C@H](N2C(=O)CCc3cc(OCCN4CCC5(CC4)C(=O)Nc4ccc(Cl)cc45)cnc32)C1 (single isomer, unassigned) [Compound 307] land among the classes by reported EC50?
Response: lowest

Prompt: Exercise: read the entry O=C1CCc2cc(OCCN3CCC4(CC3)C(=O)Nc3ccc(Cl)cc34)ccc2N1CCO [Compound 162] and state which class it falls under.
Response: middle

Prompt: Which band does CC(C)(O)c1ncc(OCCN2CCC3(CC2)C(=O)Nc2ccc(Cl)cc23)cc1C(F)(F)F [Compound 371] fall in?
Response: lowest

====

test system: HEK293 clonal cell line overexpressing APOL1 G1; assay: APOL1 G1 HEK293 cell rescue assay (Example B3); format: cell-based; conditions: Homo sapiens, HEK293, HEK293 clonal line overexpressing APOL1 G1; geometric mean of at least 2 runs; † = single run; ¥ = concentration at 50% rescue estimated (no sigmoidal curve)
Give pEC50 for every item shown.
Answers are plain numbers, as −log10 of the molar value.

{"COMPOUND": "CS(=O)(=O)c1c(F)cc(OCCN2CCC3(CC2)C(=O)Nc2ccc(Cl)cc23)cc1F", "STUDY_SYSTEM": "HEK293 clonal cell line overexpressing APOL1 G1", "ASSAY_METRIC": "pEC50", "REPORTED_MEASUREMENT": 6.86}
{"COMPOUND": "C[C@]1(O)C[C@@H](N2C(=O)C3(CC3)c3cc(OCCN4CCC5(CC4)C(=O)Nc4ccc(Cl)cc45)cnc32)C1", "STUDY_SYSTEM": "HEK293 clonal cell line overexpressing APOL1 G1", "ASSAY_METRIC": "pEC50", "REPORTED_MEASUREMENT": 7.01}
{"COMPOUND": "O=C1Nc2ccc(Cl)cc2C12CCN(CCOc1ccc(S(=O)(=O)C3(CO)CC3)nc1)CC2", "STUDY_SYSTEM": "HEK293 clonal cell line overexpressing APOL1 G1", "ASSAY_METRIC": "pEC50", "REPORTED_MEASUREMENT": 6.66}

Attention now shifts to the item below.
Note to self: pEC50 recorded for CS(=O)(=O)C1(c2ccc(OCCN3CCC4(CC3)C(=O)Nc3ccc(C(F)F)cc34)cc2)CC(O)C1 (stereo not shown) was 6.63

====

target: APOL1 G2 (Homo sapiens, UniProt O14791, DEL388-389); construct: expressed in transfected cells; host or cells: HEK293 T-REx clonal line stably expressing GCaMP6f (HEK T-REx/GCaMP6f/APOL1 G2 K6.3), doxycycline induced; experiment: APOL1-mediated calcium transport (calcium influx) assay, HEK T-REx/GCaMP6f/APOL1 G2 K6.3 cells, FLIPR TETRA; assay type: cell-based; conditions: prevention of calcium influx; geometric mean of at least 2 assay runs; † = average of a technical replicate from a single assay run
Sequence (O14791 with tags, fused parts or gaps DEL388-389): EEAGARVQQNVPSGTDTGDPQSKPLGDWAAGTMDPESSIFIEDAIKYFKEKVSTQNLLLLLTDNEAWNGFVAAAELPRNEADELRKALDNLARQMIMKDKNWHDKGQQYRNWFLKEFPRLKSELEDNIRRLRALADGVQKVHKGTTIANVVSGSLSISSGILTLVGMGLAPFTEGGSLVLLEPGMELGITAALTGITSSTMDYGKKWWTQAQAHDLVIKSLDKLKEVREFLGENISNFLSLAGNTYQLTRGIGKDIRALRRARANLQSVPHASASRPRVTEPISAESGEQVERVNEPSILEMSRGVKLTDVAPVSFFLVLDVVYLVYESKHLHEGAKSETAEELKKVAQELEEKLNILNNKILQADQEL
I'd be grateful if you could share measured AC50 for these entries.
Please state the value followed by its unit.

{"MOLECULE": "[2H]C([2H])([2H])N1C(=O)C2(CCN(CCOc3cnc4c(c3)CCC(=O)N4CC(C)(C)O)CC2)c2cc(Cl)ccc21 [Compound 417]", "AC50": "343 nM"}
{"MOLECULE": "CC(C)(C#N)c1ccc(OCCN2CCC3(CC2)C(=O)Nc2ccc(C#N)cc23)cc1 [Compound 157]", "AC50": "933 nM"}
{"MOLECULE": "CS(=O)(=O)c1ccc(OCCN2CCC3(CC2)C(=O)Nc2c(C#N)cc(Cl)cc23)cc1 [Compound 9]", "AC50": "1310 nM"}

Could you tell me AC50 for each of these molecules? They are listed below.
1. O=C1CCc2cc(OCCN3CCC4(CC3)C(=O)Nc3ccc(Cl)cc34)ccc2N1CCO [Compound 162]
2. Cc1cc(OCCN2CCC3(CC2)C(=O)Nc2ccc(Cl)cc23)cnc1S(C)(=O)=O [Compound 161]

Response:
603 nM
539 nM

Count: 2. Required value per item: AC50.
1. [2H]C([2H])([2H])N1C(=O)C2(CCN(CCOc3cc(F)c4c(c3)CCNS4(=O)=O)CC2)c2cc(Cl)ccc21 [Compound 421]
2. CN1Cc2cc(OCCN3CCC4(CC3)C(=O)N(C)c3ccccc34)ccc2C1=O [Compound 30]

Response:
1. 564 nM
2. 409 nM
